System: Yap1 mRNA
Experiment: Dose-dependent inhibition of human Yap1 in A-431 cells (Example 7, 10,000 cells per well, RTS36584)
Assay type: cell-based
Conditions: Table 56, 4000.00 nM, free uptake, A-431 cells 10,000 cells per well, 48 hours
Strand notation (5' to 3'): a small letter for the sugar, then the base; units joined by * are phosphorothioate-linked, units joined directly phosphodiester-linked; [ ] holds rarer units or linkages, { } end groups; capitals alone tell only the bases. k = constrained ethyl (cEt); [5mC] = 5-methylcytosine; d = 2'-deoxy (DNA)
Listed here are substances together with their documented Yap1 mRNA, % UTC.
Express the result in % UTC but write the number alone.

>  <substance>
958361 (antisense kG*k[5mC]*kT*d[5mC]*dG*dA*dA*d[5mC]*dA*dT*dG*d[5mC]*dT*kG*kT*kG) [compound 958361]

>  <recordedNumber>
22

$$$$

Consider the substance 715483 (k[5mC]*kT*k[5mC]*dT*dT*dT*dG*dG*dA*dA*dA*d[5mC]*d[5mC]*kA*kT*kT) [compound 715483] and give its recorded Yap1 mRNA, % UTC.
6

Consider the substance 958596 (kA*kG*k[5mC]*dA*dG*dT*dT*dA*dA*dG*d[5mC]*dA*d[5mC]*kT*kT*kT; antisense) [compound 958596] and give its recorded Yap1 mRNA, % UTC.
7

Consider the substance 715491 (kA*kA*k[5mC]*d[5mC]*dA*dA*d[5mC]*dT*dA*dT*dT*dA*d[5mC]*kT*kT*k[5mC]) [compound 715491] and give its recorded Yap1 mRNA, % UTC.
28

Consider the substance 958377 (antisense kG*k[5mC]*kT*dG*dG*dG*dA*dT*dT*dG*dA*dT*dA*kT*kT*k[5mC]) [compound 958377] and give its recorded Yap1 mRNA, % UTC.
17

Consider the substance 958375 (antisense kA*kA*kA*dG*d[5mC]*d[5mC]*dT*dT*dA*dG*dA*dG*dT*k[5mC]*kA*kA) [compound 958375] and give its recorded Yap1 mRNA, % UTC.
5

Consider the substance 958403 (antisense k[5mC]*kA*kG*dT*dT*dT*dA*dT*dG*dT*dA*dG*dT*kA*kG*kT) [compound 958403] and give its recorded Yap1 mRNA, % UTC.
12

Consider the substance 958369 (antisense kT*kT*kA*dT*d[5mC]*dT*dA*dG*d[5mC]*dT*dT*dG*dG*kT*kG*kG) [compound 958369] and give its recorded Yap1 mRNA, % UTC.
17

Consider the substance 958726 (k[5mC]*kT*kG*dT*d[5mC]*dA*dG*dT*dT*dA*dT*d[5mC]*d[5mC]*kT*kA*kT; antisense) [compound 958726] and give its recorded Yap1 mRNA, % UTC.
16

Consider the substance 958496 (k[5mC]*k[5mC]*kT*dT*dA*dT*dA*dA*dG*d[5mC]*dT*d[5mC]*d[5mC]*kT*kA*kA; antisense) [compound 958496] and give its recorded Yap1 mRNA, % UTC.
9

Consider the substance 958796 (kA*kT*kT*dA*dT*dA*dT*dG*dG*dT*dT*dG*d[5mC]*kT*kT*k[5mC]; antisense) [compound 958796] and give its recorded Yap1 mRNA, % UTC.
15

Consider the substance 958476 (kT*kT*k[5mC]*d[5mC]*dG*dG*dT*dG*d[5mC]*dA*dT*dG*dT*kG*kT*k[5mC]; antisense) [compound 958476] and give its recorded Yap1 mRNA, % UTC.
6

Consider the substance 958736 (kG*kT*kG*dA*dT*dA*dT*dG*dG*dA*dT*dT*d[5mC]*kT*kG*kT; antisense) [compound 958736] and give its recorded Yap1 mRNA, % UTC.
7

====

Assay: Cynomolgus monkey tolerability, body and organ weight measurements (Example 34)
Assay type: in vivo
Settings: cynomolgus monkeys, 35 mg/kg subcutaneously, prior to necropsy
measurementKind: Terminal Body Weight (g)
Express the result in g but write the number alone.

Solved entries:
>  <substance>
1198439 (AGTGTATGTCAGAAGA; sugar, 5-methylcytosine, phosphorothioate modifications, further chemistry not given here) [compound 1198439]

>  <unitSpec>
g

>  <recordedNumber>
2959

$$$$
>  <substance>
1198872 (TGTATGTCAGAAGAGT; chemically modified gapmer, further chemistry not given here) [compound 1198872]

>  <unitSpec>
g

>  <recordedNumber>
3126

$$$$
>  <substance>
1198440 (AAGTGTATGTCAGAAG; cEt, 2'-MOE, 5-methylcytosine, phosphorothioate modifications, further chemistry not given here) [compound 1198440]

>  <unitSpec>
g

>  <recordedNumber>
2919

$$$$

Alright, here's another substance for you.
Consider the substance 1198728 (TATTAGAGTATGTGGC; modified gapmer, further chemistry not given here) [compound 1198728] and give its recorded Terminal Body Weight.
2722

====

Experiment: Tolerability in Balb/c mice, body and organ weights (Example 11)
Type: in vivo
Conditions: 50 mg/kg subcutaneously twice a week for four weeks, end of study
Strand notation (5' to 3'): a small letter for the sugar, then the base; units joined by * are phosphorothioate-linked, units joined directly phosphodiester-linked; [ ] holds rarer units or linkages, { } end groups; capitals alone tell only the bases. k = constrained ethyl (cEt); [5mC] = 5-methylcytosine; d = 2'-deoxy (DNA)
measurementKind: body weight (g)
Express the result in g but write the number alone.

>  <substance>
716480 (antisense kG*k[5mC]*kA*dA*dG*dT*d[5mC]*dT*dT*dG*dT*dA*dA*kG*kT*kA) [compound 716480]

>  <body weight / g>
21

$$$$
>  <substance>
716481 (antisense kT*k[5mC]*kA*dG*d[5mC]*dA*dT*dA*dG*dA*dA*dG*dT*kA*kG*kG) [compound 716481]

>  <body weight / g>
22

$$$$
>  <substance>
715473 (kT*k[5mC]*kT*dT*dT*dA*dT*d[5mC]*dT*dA*dG*d[5mC]*dT*kT*kG*kG; antisense) [compound 715473]

>  <body weight / g>
20

$$$$
>  <substance>
715487 (kA*kT*kT*dA*d[5mC]*dT*dT*d[5mC]*dA*dT*dA*dG*d[5mC]*kT*kT*kA) [compound 715487]

>  <body weight / g>
27

$$$$
>  <substance>
715415 (k[5mC]*kG*kA*dA*d[5mC]*dA*dT*dG*d[5mC]*dT*dG*dT*dG*kG*kA*kG; antisense) [compound 715415]

>  <body weight / g>
25

$$$$
>  <substance>
716502 (antisense k[5mC]*kA*k[5mC]*dA*dG*dT*dG*dA*dT*dT*dG*d[5mC]*dA*kT*kT*kT) [compound 716502]

>  <body weight / g>
23

$$$$

Consider the substance 716424 (antisense kG*k[5mC]*kA*dA*dT*dG*dG*dA*d[5mC]*dA*dA*dG*dG*kA*kA*kG) [compound 716424] and give its recorded body weight.
23

Consider the substance 716513 (antisense kA*kA*kT*d[5mC]*dT*dT*dA*dA*dT*d[5mC]*dT*dG*dT*kG*kG*k[5mC]) [compound 716513] and give its recorded body weight.
25

====

Listed here are substances together with their documented YAP1 (% UTC).
Tested on: Yap1 mRNA
Assay: Antisense inhibition of human Yap1 in A-431 cells by cEt gapmers, single dose (Example 3, RTS36584)
Assay type: cell-based
Settings: Table 9; A-431 cells, 5,000 cells per well, free uptake, 2,000 nM, approximately 48 hours; RTS36584; normalized to RIBOGREEN; Yap1 mRNA relative to untreated control cells
Strand notation (5' to 3'): a small letter for the sugar, then the base; units joined by * are phosphorothioate-linked, units joined directly phosphodiester-linked; [ ] holds rarer units or linkages, { } end groups; capitals alone tell only the bases. k = constrained ethyl (cEt); [5mC] = 5-methylcytosine; d = 2'-deoxy (DNA)

Solved entries:
>  <substance>
958706 (antisense kT*k[5mC]*kG*d[5mC]*dA*dT*dG*dG*d[5mC]*d[5mC]*dA*d[5mC]*dT*kG*k[5mC]*k[5mC]) [Compound 958706]

>  <YAP1 (% UTC)>
112 % UTC

$$$$
>  <substance>
958461 (antisense kG*k[5mC]*k[5mC]*dG*dA*dA*dG*d[5mC]*dA*dG*dT*dT*d[5mC]*kT*kT*kG) [Compound 958461]

>  <YAP1 (% UTC)>
79 % UTC

$$$$

Consider the substance 958566 (kA*k[5mC]*k[5mC]*dT*dA*dT*dG*dA*dA*d[5mC]*dT*dA*dT*kT*kA*kT; antisense) [Compound 958566] and give its recorded YAP1 (% UTC).
18 % UTC

====

Listed here are substances together with their documented pIC50.
System: Yap1 mRNA
Experiment: Dose-dependent inhibition of human Yap1 in A-431 cells (Example 24, 11,000 cells per well, RTS36584, normalized to GAPDH)
Type: cell-based
Details: free uptake, 48 hours, linear regression on a log/linear plot
Please note pIC50 is a logarithmic value: minus log10 of concentration in mol/L. Answer with that number alone.

Solved entries:
>  <substance>
958499 (ATTAGAGTATGTGGCA; 3-10-3 cEt gapmer, further chemistry not given here) [compound 958499]

>  <targetOfAssay>
Yap1 mRNA

>  <pIC50>
7.52

$$$$
>  <substance>
1198728 (TATTAGAGTATGTGGC; modified gapmer, further chemistry not given here) [compound 1198728]

>  <targetOfAssay>
Yap1 mRNA

>  <pIC50>
7.70

$$$$
>  <substance>
1198440 (AAGTGTATGTCAGAAG; cEt, 2'-MOE, 5-methylcytosine, phosphorothioate modifications, further chemistry not given here) [compound 1198440]

>  <targetOfAssay>
Yap1 mRNA

>  <pIC50>
7.70

$$$$

Consider the substance 1198439 (AGTGTATGTCAGAAGA; sugar, 5-methylcytosine, phosphorothioate modifications, further chemistry not given here) [compound 1198439] and give its recorded pIC50.
7.70

Consider the substance 1198605 (GTAATATTGCAATCTG; modified gapmer, further chemistry not given here) [compound 1198605] and give its recorded pIC50.
7.70

Consider the substance 1197270 (TTAAAGTGTATGTCAG; cEt gapmer with 2'-OMe nucleoside, phosphorothioate, further chemistry not given here) [compound 1197270] and give its recorded pIC50.
7.70

Data credit: patent US11214803B2
